Measured values drawn from ChEMBL document CHEMBL2069213 for this set.

targetSystem: Serine/threonine-protein kinase PknG (Mycobacterium tuberculosis) (UniProt P9WI73)
Sequence (P9WI73 whole entry): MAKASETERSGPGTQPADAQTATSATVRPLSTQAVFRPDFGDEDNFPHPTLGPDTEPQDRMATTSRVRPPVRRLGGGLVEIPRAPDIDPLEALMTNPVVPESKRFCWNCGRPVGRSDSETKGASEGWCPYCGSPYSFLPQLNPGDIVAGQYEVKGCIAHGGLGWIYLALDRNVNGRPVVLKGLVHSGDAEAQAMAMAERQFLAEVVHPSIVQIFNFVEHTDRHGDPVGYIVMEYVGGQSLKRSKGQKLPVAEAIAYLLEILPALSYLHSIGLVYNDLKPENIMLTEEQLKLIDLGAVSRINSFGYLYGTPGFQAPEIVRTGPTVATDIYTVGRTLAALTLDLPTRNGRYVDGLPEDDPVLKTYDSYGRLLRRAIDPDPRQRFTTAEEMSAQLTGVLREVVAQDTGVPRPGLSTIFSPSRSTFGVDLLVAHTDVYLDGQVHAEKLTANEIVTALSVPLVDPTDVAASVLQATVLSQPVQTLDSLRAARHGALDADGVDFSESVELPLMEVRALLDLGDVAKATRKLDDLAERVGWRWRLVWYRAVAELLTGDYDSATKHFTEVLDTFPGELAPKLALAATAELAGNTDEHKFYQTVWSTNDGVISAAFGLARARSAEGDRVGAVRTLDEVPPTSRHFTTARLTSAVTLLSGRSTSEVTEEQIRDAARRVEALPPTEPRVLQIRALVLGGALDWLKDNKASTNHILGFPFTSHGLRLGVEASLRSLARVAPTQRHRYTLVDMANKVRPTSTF
measurementProtocol: Inhibition of Mycobacterium tuberculosis recombinant PKnG expressed in Escherichia coli BL21 (DE3) cells using myelin basic protein substrate at 100 uM by luciferase activity based ADP-Glo-luminescent kinase assay
Label Fulfilled for high-side inhibition (at or above 30%) and Not fulfilled for low-side inhibition (below it).

Look over these answered cases.
>>> qualitativelabel("Nc1nc(-c2ccccc2)cc(-c2ccc(OCc3cn(Cc4ccc(Br)cc4)nn3)cc2O)n1")
"Fulfilled"
>>> qualitativelabel("CCCCCCn1cc(COc2ccc(-c3cc(-c4ccccc4)nc(N)n3)c(O)c2)nn1")
"Not fulfilled"

IN: Would you say "COc1ccc(-c2cc(-c3ccc(OCc4cn(Cc5ccccc5)nn4)cc3O)nc(N)n2)cc1" shows inhibition at minimum 30%?
OUT: Fulfilled

IN: Is inhibition for "C#CCOc1ccc(-c2cc(-c3ccc(OCc4cn(CCCCCC)nn4)cc3O)nc(N)n2)cc1" at or above 30%?
OUT: Not fulfilled

IN: Is inhibition at least 30%? Consider "CC(C)c1ccc(-c2cc(-c3ccc(OCc4cn(Cc5ccc(Br)cc5)nn4)cc3O)nc(N)n2)cc1"
OUT: Not fulfilled

IN: Assess whether reported inhibition for "Nc1nc(-c2ccc(Cl)cc2)cc(-c2ccc(OCc3cn(Cc4ccccc4)nn3)cc2O)n1" sits at 30% or higher.
OUT: Fulfilled

IN: Has "CCCCCCn1cc(COc2ccc(-c3cc(-c4ccc(C(C)C)cc4)nc(N)n3)c(O)c2)nn1" a recorded inhibition greater than or equal to 30%?
OUT: Not fulfilled

IN: Tell me whether inhibition is at least 30% here: "CC(C)c1ccc(-c2cc(-c3ccc(OCc4cn(Cc5ccccc5)nn4)cc3O)nc(N)n2)cc1"
OUT: Not fulfilled

IN: Does inhibition meet or surpass 30% for "Nc1nc(-c2ccc(OCc3cn(Cc4ccccc4)nn3)cc2O)cc(-c2c(F)cccc2Cl)n1" ?
OUT: Not fulfilled

IN: I'd appreciate it if you could say whether "CCCCCCn1cc(COc2ccc(-c3cc(-c4cccc5ccccc45)nc(N)n3)c(O)c2)nn1" has inhibition at least equal to 30%.
OUT: Not fulfilled

---

System: Mycolicibacterium aurum
measurementProtocol: Inhibition of FAS2 in recombinant Mycobacterium aurum expressing Mycobacterium tuberculosis H37Rv kas operon in fusion Escherichia coli lacZ gene assessed as increase in beta-galactosidase activity at 100 uM incubated for 12 hrs by lacZ reporter gene assay
Calls of active or inactive are those of the source. The calls are words filed in the database; no cut-off is given here.
Permitted responses: t (active), f (inactive)

Some entries whose results are on file:
>>> qualitativelabel("O=C(/C=C/c1ccccc1)c1ccc(OCc2cn(Cc3ccc(Br)cc3)nn2)cc1O")
"t"
>>> qualitativelabel("CC(=O)c1ccc(OCc2cn(Cc3ccccc3)nn2)cc1O")
"f"
>>> qualitativelabel("CCCCCCn1cc(COc2ccc(C(=O)/C=C/c3ccc(Br)cc3)c(O)c2)nn1")
"f"

IN: What classification did "CC(=O)c1ccc(OCc2cn(Cc3ccc(Br)cc3)nn2)cc1O" end up with in this test?
OUT: f

IN: So what was the verdict on "CCCCCCn1cc(COc2ccc(C(C)=O)c(O)c2)nn1" in this test?
OUT: f

---

targetSystem: Serine/threonine-protein kinase PknG (Mycobacterium tuberculosis) (UniProt P9WI73)
measurementProtocol: Inhibition of Mycobacterium tuberculosis recombinant PKnG expressed in Escherichia coli BL21 (DE3) cells using myelin basic protein substrate at 50 uM by luciferase activity based ADP-Glo-luminescent kinase assay
Please use the following inhibition ranges when assigning a class: low group: < 10%; middle group: ≥ 10% and < 20%; high group: ≥ 20%

These solved cases illustrate the format of a correct answer.
>>> qualitativelabel("CCCCCCn1cc(COc2ccc(-c3cc(-c4ccc(Cl)cc4)nc(N)n3)c(O)c2)nn1")
"low group"
>>> qualitativelabel("Nc1nc(-c2ccc(Br)cc2)cc(-c2ccc(OCc3cn(Cc4ccc(Br)cc4)nn3)cc2O)n1")
"low group"
>>> qualitativelabel("COc1ccc(-c2cc(-c3ccc(OCc4cn(Cc5ccccc5)nn4)cc3O)nc(N)n2)cc1")
"high group"
>>> qualitativelabel("NC(=O)C1=C(NC(=O)C2CC2)CC2=C1CCCC2")
"high group"
>>> qualitativelabel("Nc1nc(-c2ccc(OCc3cn(Cc4ccccc4)nn3)cc2O)cc(-c2cccc3ccccc23)n1")
"high group"

IN: Which inhibition category applies to "Nc1nc(-c2ccc(OCc3cn(Cc4ccc(Br)cc4)nn3)cc2O)cc(-c2cccc3ccccc23)n1" here?
OUT: low group

IN: Band for the recorded inhibition of "CCCCCCn1cc(COc2ccc(-c3cc(-c4ccccc4)nc(N)n3)c(O)c2)nn1" ?
OUT: middle group

IN: Please report the category associated with "Nc1nc(-c2ccccc2)cc(-c2ccc(OCc3cn(Cc4ccccc4)nn3)cc2O)n1" , nothing else.
OUT: high group

IN: Class for "CC(C)c1ccc(-c2cc(-c3ccc(OCc4cn(Cc5ccccc5)nn4)cc3O)nc(N)n2)cc1" ?
OUT: middle group

IN: Which class is correct for the following molecule? "Nc1nc(-c2ccccc2)cc(-c2ccc(OCc3cn(Cc4ccc(Br)cc4)nn3)cc2O)n1"
OUT: middle group
